Test system: PA-1
procedure-details: Primary qHTS to identify gynecologic anti-cancer compounds using libraries of approved drugs and bioactive compounds (AID 1345084); note: nearly all actives have a fitted effect of over 55% in size
assay-conditions: Gynecologic cancer cell panel viability, ATPlite luminescence, 48 h; series mostly up to 57.5 µM
Records with an inconclusive call do not appear. Active and inactive are the calls of the source. Calls come from the whole dose curve; as a rule, active = well fitted cell-killing curve with a large enough effect; inconclusive = small, poorly fitted or top-dose-only effect, or effect the other way; inactive = flat fitted curve, though single readings scatter.
Your reply should match one of these outcome classes. 1 for active, 0 for inactive

Answered examples (4):
{"compound": "CN(C)CCCOC1(Cc2ccccc2)CCCCCC1", "target-system": "PA-1", "answer-label": 0}
{"compound": "O=C1CC[C@H](C(=O)N2CCCCC2)N1", "target-system": "PA-1", "answer-label": 0}
{"compound": "Cc1sccc1Br", "target-system": "PA-1", "answer-label": 0}
{"compound": "CC(=O)Nc1c(I)c(NC(C)=O)c(I)c(C(=O)O)c1I", "target-system": "PA-1", "answer-label": 0}

IN: Please share the test call associated with O=C(C1CCCCC1)N1CC(=O)N2CCCc3ccccc3C2C1 (stereo unspecified) .
OUT: 0

IN: Please share the test call associated with N=C(N)c1ccc(OCCCOc2ccc(C(=N)N)cc2)cc1 .
OUT: 0

IN: Please share the test call associated with Cc1ccccc1C(=O)N1CC/C(=N\OS(=O)(=O)O)c2ccc(Cl)cc21 .
OUT: 0

IN: Please share the test call associated with Nc1nc2ccccc2n1Cc1ccc(F)cc1 .
OUT: 0

IN: Please share the test call associated with O=C(O)c1ccc(OCCN2CCCCC2)cc1 .
OUT: 0
